Assay: Solubility of water in Ether Ketone Solvent (dropwise addition, weighing)
Format: physicochemical
Settings: water in dried solvent; lab temperature 30° C.
Measurement Label: Solubility Water In (wt %)
Return type: number; implicit unit wt %.

Known Solubility Water In results, listed for orientation:
Compound | Solubility Water In [wt %]
CCCCOCC(C)OCC(C)=O (centres unmarked) | 0.03
CCCCOCC(C)=O | 0.005
CCCCCCOCC(C)OCC(C)=O (centres unmarked) | 0.03

Query: Look up Solubility Water In: CCCCOCC(=O)CC
Result: 0.11

Query: Next up: CCCCCCOCC(=O)CC
Result: 0.02

---

Assay: Method A: solubility of active ingredient in solvent by NMR spectroscopy of a saturated solution
Assay type: physicochemical
Conditions: 2-methyl-4-chlorophenoxyacetic acid dissolved in the named solvent
Entries annotated with measured Active Ingredient Solubility: MCPA
Return type: number; implicit unit wt %.

Molecule | Unit Descriptor | Measurement
CCCCCCOCC(CC)OCC(=O)CC (stereo not drawn) | wt % | 17.2

Query: Look up Active Ingredient Solubility: MCPA: CCCCOCC(=O)CC
Result: 21.6

Query: Next up: CCCCCCOCC(C)OCC(C)=O (stereo not drawn)
Result: 22.1

Query: Next up: CCCCCOCC(C)OCC(C)=O (stereo not drawn)
Result: 22.0

Query: Next up: CCCCCCCCOCC(C)=O
Result: 17.1

Query: Next up: CCCCOCC(C)OCC(C)OCC(C)=O (stereo not drawn)
Result: 22.5

Query: Next up: CCCCCCOCC(=O)CC
Result: 17.5

---

Assay: Method A: solubility of active ingredient in solvent by NMR spectroscopy of a saturated solution
Assay type: physicochemical
Details: dicamba acid dissolved in the named solvent
Measurement Label: Active Ingredient Solubility: Dicamba Acid (wt %)
Return type: number; implicit unit wt %.

Known Active Ingredient Solubility: Dicamba Acid results, listed for orientation:
Compound | Measurement
CCCCCCOCC(C)OCC(C)=O (stereo not drawn) [DPnH Ketone] | 48.4
CCCCOCC(C)OCC(C)OCC(C)=O (stereo not drawn) [TPnB Ketone] | 49.7

Consider the record given below.
Query: Look up Active Ingredient Solubility: Dicamba Acid: CCCCCOCC(C)=O [PnPent Ketone, 1-Pentyloxy-2-propanone]
Result: 49.1

---

Test: Method A: solubility of active ingredient in solvent by NMR spectroscopy of a saturated solution
Type: physicochemical
Conditions: tebuconazole dissolved in the named solvent
Measurement Label: Active Ingredient Solubility: Tebuconazole (wt %)
Return type: number; implicit unit wt %.

Known Active Ingredient Solubility: Tebuconazole results, listed for orientation:
Molecule | Measurement
CCCCCCOCC(=O)CC | 13.5
CCCCCCOCC(CC)OCC(=O)CC (stereo not drawn) | 11.2

Consider the record given below.
Query: Look up Active Ingredient Solubility: Tebuconazole: CCCCOCC(C)=O
Result: 25.1

---

Assay: Method A: solubility of active ingredient in solvent by NMR spectroscopy of a saturated solution
Format: physicochemical
Settings: dicamba acid dissolved in the named solvent
Classification field: enter true for Active Ingredient Solubility: Dicamba Acid values not below 50 wt %, false for values below it.

The following compounds have reported results that may help.
Compound | Label Class
CCCCCCOCC(=O)CC | false
CCCCCCOCC(CC)OCC(=O)CC (centres unmarked) | false
CCCCOCC(C)=O | true
O=C1CCCCC1 | true
CCCCOCC(CC)OCC(=O)CC (centres unmarked) | false

Query: Entry CCCCOCC(C)OCC(C)=O (centres unmarked) : is its Active Ingredient Solubility: Dicamba Acid no less than 50 wt %?
Result: true

Query: Next up: CCCCCCCCOCC(C)=O
Result: false

Query: Next up: CCCCCCCCOCC(=O)CC
Result: false

---

Entries annotated with measured Active Ingredient Solubility: Nitrapyrin
Assay: Method A: solubility of active ingredient in solvent by NMR spectroscopy of a saturated solution
Format: physicochemical
Details: nitrapyrin dissolved in the named solvent
Return type: number; implicit unit wt %.

Compound | Measurement Label | Measurement
CCCCCCCCOCC(=O)CC | Active Ingredient Solubility: Nitrapyrin | 41.6
CCCCCCOCC(C)OCC(C)=O (centres unmarked) | Active Ingredient Solubility: Nitrapyrin | 39.0

Query: Look up Active Ingredient Solubility: Nitrapyrin: CCCCCOCC(C)OCC(C)=O (centres unmarked)
Result: 41.8

Query: Next up: CCCCOCC(CC)OCC(=O)CC (centres unmarked)
Result: 42.6

Query: Next up: CCCCOCC(C)=O
Result: 53.4

---

Test: Solubility of Ether Ketone Solvent in water (dropwise addition, weighing)
Type: physicochemical
Conditions: lab temperature 30° C.
Measurement Label: Solubility In Water (wt %)
Return type: number; implicit unit wt %.

Known Solubility In Water results, listed for orientation:
Compound | Solubility In Water, wt %
CCCCOCC(C)=O [PnB Ketone, 1-Butoxy-2-propanone] | 0.20
CCCCCCOCC(=O)CC [BnH Ketone, 1-Hexyloxy-2-butanone] | 0.22
CCCCCCOCC(C)OCC(C)=O (centres unmarked) [DPnH Ketone] | 0.22
CCCCOCC(C)OCC(C)=O (centres unmarked) [DPnB Ketone] | 0.20

Consider the record given below.
Query: Look up Solubility In Water: CCCCOCC(=O)CC [BnB Ketone, 1-Butoxy-2-butanone]
Result: 0.43

---

Test: Method A: solubility of active ingredient in solvent by NMR spectroscopy of a saturated solution
Format: physicochemical
Details: 2,4-dichlorophenoxyacetic acid dissolved in the named solvent
Measurement Label: Active Ingredient Solubility: 2,4-D Acid (wt %)
Return type: number; implicit unit wt %.

Compound | Measurement
CCCCCOCC(C)OCC(C)=O (stereo not drawn) [DPnPent Ketone] | 15.0
CCCCCCOCC(=O)CC [BnH Ketone, 1-Hexyloxy-2-butanone] | 12.8

Query: Look up Active Ingredient Solubility: 2,4-D Acid: CCCCOCC(C)OCC(C)OCC(C)=O (stereo not drawn) [TPnB Ketone]
Result: 16.3

---

Entries annotated with measured Active Ingredient Solubility: NBPT
Experiment: Method A: solubility of active ingredient in solvent by NMR spectroscopy of a saturated solution
Format: physicochemical
Details: N-(n-butyl)thiophosphoric triamide dissolved in the named solvent
Return type: number; implicit unit wt %.

Molecule | Unit Descriptor | Measurement
CCCCCCCCOCC(=O)CC [BnO Ketone, 1-Octyloxy-2-butanone] | wt % | 10.0
CCCCOCC(=O)CC [BnB Ketone, 1-Butoxy-2-butanone] | wt % | 21.0
CCCCCOCC(C)=O [PnPent Ketone, 1-Pentyloxy-2-propanone] | wt % | 24.2
CCCCOCC(C)=O [PnB Ketone, 1-Butoxy-2-propanone] | wt % | 32.8
CCCCOCC(CC)OCC(=O)CC (stereo not drawn) [DBnB Ketone, 1-((1-Butoxy-2-butanyl)oxy)-2-butanone] | wt % | 15.7
CCCCCCOCC(C)OCC(C)=O (stereo not drawn) [DPnH Ketone] | wt % | 25.3
CCCCCOCC(C)OCC(C)=O (stereo not drawn) [DPnPent Ketone] | wt % | 24.4
CCCCCCOCC(CC)OCC(=O)CC (stereo not drawn) [DBnH Ketone] | wt % | 10.5
CCCCCCOCC(=O)CC [BnH Ketone, 1-Hexyloxy-2-butanone] | wt % | 13.6
CCCCOCC(C)OCC(C)=O (stereo not drawn) [DPnB Ketone] | wt % | 25.5

Query: Look up Active Ingredient Solubility: NBPT: CCCCCCCCOCC(C)=O [PnO Ketone, 1-Octyloxy-2-propanone]
Result: 15.9

Query: Next up: CCCCOCC(C)OCC(C)OCC(C)=O (stereo not drawn) [TPnB Ketone]
Result: 22.1

---

Assay: Method A: solubility of active ingredient in solvent by NMR spectroscopy of a saturated solution
Type: physicochemical
Details: bifenthrin dissolved in the named solvent
Entries annotated with measured Active Ingredient Solubility: Bifenthrin
Return type: number; implicit unit wt %.

Known Active Ingredient Solubility: Bifenthrin results, listed for orientation:
Compound | Unit Descriptor | Measurement
CCCCOCC(C)=O | wt % | 43.3
CCCCCCCCOCC(=O)CC | wt % | 33.9
CCCCCOCC(C)=O | wt % | 40.2
CCCCOCC(=O)CC | wt % | 42.6
CCCCOCC(CC)OCC(=O)CC (stereo not drawn) | wt % | 34.7
CCCCCCCCOCC(C)=O | wt % | 35.4
CCCCCOCC(C)OCC(C)=O (stereo not drawn) | wt % | 31.8
CCCCCCOCC(C)OCC(C)=O (stereo not drawn) | wt % | 35.5
CCCCOCC(C)OCC(C)OCC(C)=O (stereo not drawn) | wt % | 13.0
CCCCCCOCC(CC)OCC(=O)CC (stereo not drawn) | wt % | 33.8

Query: Look up Active Ingredient Solubility: Bifenthrin: CCCCCCOCC(=O)CC
Result: 37.3

Query: Next up: CCCCOCC(C)OCC(C)=O (stereo not drawn)
Result: 33.4
